# ASSAY_REMARKS: chemical genetic growth profiling, strain panel (AID 1159580);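 note: tested at 20 µM; growth read once vehicle control cultures reached saturation at 30 °C; 1 = growth at the plate median or of vehicle wells; lower values mean less growth of the strain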
# DETAILS: S. cerevisiae deletion strains, growth OD, locus YGR078C, strain PAC10, hits give low values
Among all 5,500 compounds or so, about 2,000 (36%) were called active. Inconclusive results (about 18%) are left out. This is one part of the list.
PROPERTY: normalized growth
Answer with the value's number alone.

Request: For the compound COc1ccc(/C(C#N)=C/c2ccc(OC)c(OC)c2)cc1 , what normalized growth is on record?
Response: 0.968

Request: Report normalized growth for CCN(C(=S)Nc1ccc(OC)cc1)c1ccccc1 please.
Response: 0.989

Request: Recorded normalized growth for N/C(=N/OC(=O)C(Cl)Cl)c1cccc(Cl)c1Cl , please?
Response: 0.973

Request: For the compound CC(=O)O[C@@H]1CC2C(C)(C)C(=O)[C@@H]3O[C@@H]3[C@]2(C)C2CC[C@]3(C)C(=CC(=O)O[C@H]3c3ccoc3)[C@@]21C (some centres undefined) , what normalized growth is on record?
Response: 1.01

Request: What does the data say about its normalized growth? Entry: S=C(S)N1CCCC1
Response: 0.977

Request: Value lookup for normalized growth; key = N#CCCNc1cc(C(F)(F)F)cc(C(F)(F)F)c1
Response: 0.947

Request: Any idea what normalized growth was measured for N#C/C(=C\c1ccc(O)cc1)C(=O)O ?
Response: 0.97

Request: Can you look up the measured normalized growth of O=C1c2ccc(O)c(O)c2C(=O)c2c(O)ccc(O)c21 for me?
Response: 1.01

Request: // returns reported normalized growth for input CCCN(CCC)[C@@H]1CCc2cccc(O)c2C1
Response: 0.981
